molecular target: T1, hPD-1-Fc (human, UniProt Q15116 25-167); experiment: SPR Biacore T200, PD-1-Fc immobilised
T1 construct: domain: IgV domain; also called human PD-1-Fc; not shown: human IgG1 Fc
T1 sequence (Q15116 25-167 limits assumed): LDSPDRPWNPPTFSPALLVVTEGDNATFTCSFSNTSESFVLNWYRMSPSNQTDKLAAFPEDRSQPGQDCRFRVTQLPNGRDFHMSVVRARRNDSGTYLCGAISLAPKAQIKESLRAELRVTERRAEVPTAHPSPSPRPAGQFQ
readout type: Kd (pM)
Answer in pM, number only, no unit symbol.

38A11 (antibody, V domains shown) VH: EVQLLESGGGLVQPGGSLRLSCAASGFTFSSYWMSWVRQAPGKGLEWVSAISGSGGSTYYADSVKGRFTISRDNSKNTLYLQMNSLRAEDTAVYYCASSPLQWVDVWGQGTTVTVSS VL: DIQMTQSPSSLSASVGDRVTITCRASQSISSWLAWYQQKPGKAPKLLIYDASTLQSGVPSRFSGSGSGTDFTLTISSLQPEDFATYYCQQGNSFPFTFGPGTKVDIK | 1020
39G8 (antibody, V domains shown) VH: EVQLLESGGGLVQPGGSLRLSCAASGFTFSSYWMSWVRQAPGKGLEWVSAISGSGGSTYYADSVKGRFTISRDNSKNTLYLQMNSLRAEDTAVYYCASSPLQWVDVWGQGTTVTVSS VL: DIQMTQSPSSLSASVGDRVTITCRASQGISPWLAWYQQKPGKAPKLLIYDASKLETGVPSRFSGSGSGTDFTLTISSLQPEDFATYYCQQAYSFPFTFGGGTKVEIK | 794

Qu. Give its Kd value. Item: 38A6 (antibody, V domains shown, also called 780_46) VH: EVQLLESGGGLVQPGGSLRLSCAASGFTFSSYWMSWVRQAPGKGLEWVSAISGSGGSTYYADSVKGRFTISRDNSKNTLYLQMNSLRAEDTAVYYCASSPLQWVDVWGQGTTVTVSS VL: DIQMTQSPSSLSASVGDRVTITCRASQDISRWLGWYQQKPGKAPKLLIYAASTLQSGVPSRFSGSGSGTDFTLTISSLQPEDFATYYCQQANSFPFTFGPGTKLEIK
Ans. 477

Qu. Item: 33C4 (antibody, V domains shown, also called 780_39) VH: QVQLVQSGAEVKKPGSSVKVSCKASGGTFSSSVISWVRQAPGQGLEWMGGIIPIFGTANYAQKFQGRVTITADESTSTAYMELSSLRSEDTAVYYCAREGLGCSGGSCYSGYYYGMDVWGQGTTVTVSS VL: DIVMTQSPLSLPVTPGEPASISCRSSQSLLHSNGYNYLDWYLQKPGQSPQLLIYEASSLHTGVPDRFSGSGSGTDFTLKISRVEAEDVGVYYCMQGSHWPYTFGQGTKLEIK
Ans. 575
